Where these numbers come from: patent US10011571B2

molecular target: JAK3 (Homo sapiens (Human), UniProt P52333); assay: Z'-LYTE enzymatic activity detection, JAK3; type: biochemical; conditions: test compound 30 nM
Sequence (P52333 whole entry): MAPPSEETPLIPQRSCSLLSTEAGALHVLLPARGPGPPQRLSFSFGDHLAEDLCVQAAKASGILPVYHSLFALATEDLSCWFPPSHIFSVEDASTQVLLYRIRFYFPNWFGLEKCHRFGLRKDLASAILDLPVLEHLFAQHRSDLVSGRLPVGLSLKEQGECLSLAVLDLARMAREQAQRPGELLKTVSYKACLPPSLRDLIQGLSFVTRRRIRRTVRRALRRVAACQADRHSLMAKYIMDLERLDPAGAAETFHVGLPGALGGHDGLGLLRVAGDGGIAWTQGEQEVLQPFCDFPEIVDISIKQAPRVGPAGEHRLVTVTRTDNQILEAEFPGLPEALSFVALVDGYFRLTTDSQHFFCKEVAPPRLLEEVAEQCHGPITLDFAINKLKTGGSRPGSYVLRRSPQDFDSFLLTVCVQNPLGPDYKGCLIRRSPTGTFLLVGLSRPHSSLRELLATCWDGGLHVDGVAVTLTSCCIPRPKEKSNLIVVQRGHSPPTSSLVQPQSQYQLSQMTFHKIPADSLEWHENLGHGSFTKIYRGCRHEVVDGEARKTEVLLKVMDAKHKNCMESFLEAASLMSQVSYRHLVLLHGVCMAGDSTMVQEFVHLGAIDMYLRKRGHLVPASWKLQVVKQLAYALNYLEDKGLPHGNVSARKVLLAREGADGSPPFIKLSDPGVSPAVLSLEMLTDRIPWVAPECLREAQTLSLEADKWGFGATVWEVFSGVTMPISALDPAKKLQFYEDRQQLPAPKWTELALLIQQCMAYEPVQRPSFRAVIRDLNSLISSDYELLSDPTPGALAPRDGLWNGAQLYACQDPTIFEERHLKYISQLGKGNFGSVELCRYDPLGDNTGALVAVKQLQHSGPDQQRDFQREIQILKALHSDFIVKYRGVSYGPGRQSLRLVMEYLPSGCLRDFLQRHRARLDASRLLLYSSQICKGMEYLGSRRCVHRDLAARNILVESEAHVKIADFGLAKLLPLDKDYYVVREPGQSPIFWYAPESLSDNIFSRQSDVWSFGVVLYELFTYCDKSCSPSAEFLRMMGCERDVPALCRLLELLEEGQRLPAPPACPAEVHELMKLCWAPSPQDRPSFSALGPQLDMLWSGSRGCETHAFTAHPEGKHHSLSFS
Listed molecules paired with reported JAK3 RV (ratio between the inhibitory rate of the test compound and that of Xeljanz)
observation-type: JAK3 RV (ratio between the inhibitory rate of the test compound and that of Xeljanz)

- smiles-entry: "C=CC(=O)N(C)c1cc(Nc2ncc(Cl)c(NCCCNC(=O)c3ccc(C)cc3)n2)ccc1F"
  endpoint-result: 0.92
- smiles-entry: "C=CC(=O)N(C)c1cc(Nc2ncc(Cl)c(NCCCNC(=O)c3ccncc3)n2)ccc1F"
  endpoint-result: 0.90
- smiles-entry: "C=CC(=O)Nc1cc(Nc2ncc(Cl)c(NCCCNC(=O)c3ccc(F)cc3)n2)ccc1F"
  endpoint-result: 0.97
- smiles-entry: "C=CC(=O)N(C)c1cc(Nc2ncc(Cl)c(NCCCNC(=O)c3c(F)cc(F)cc3F)n2)ccc1F"
  endpoint-result: 0.53

====

molecular target: JAK3 (Homo sapiens (Human)); assay: Z'-LYTE enzymatic activity detection, JAK3; format: biochemical; conditions: test compound 30 nM
Met means recorded JAK3 RV (ratio between the inhibitory rate of the test compound and that of Xeljanz) is 0.8 or above; Not met means it is below 0.8.

- smiles-entry: "C=CC(=O)N(C)c1cc(Nc2ncc(Cl)c(NCCCNC(=O)c3ccc(F)cc3)n2)ccc1F"
  label-class: "Met"
- smiles-entry: "C=CC(=O)N(C)c1cc(Nc2ncc(Cl)c(NCCCNC(=O)c3ccc(C(F)(F)F)c(F)c3)n2)ccc1F"
  label-class: "Met"
- smiles-entry: "C=CC(=O)N(C)c1cc(Nc2ncc(Cl)c(NCCCNC(=O)c3ccc(N(C)C)cc3)n2)ccc1F"
  label-class: "Met"
- smiles-entry: "C=CC(=O)N(C)c1cc(Nc2ncc(Cl)c(NCCCNS(=O)(=O)c3ccc(C#N)cc3)n2)ccc1F"
  label-class: "Not met"
- smiles-entry: "C=CC(=O)N(C)c1cc(Nc2ncc(Cl)c(NCCCNC(=O)c3ccc(O)cc3)n2)ccc1F"
  label-class: "Not met"
- smiles-entry: "C=CC(=O)N(C)c1cc(Nc2ncc(Cl)c(NCCCNC(=O)c3ccc(OC)cc3)n2)ccc1F"
  label-class: "Not met"
- smiles-entry: "C=CC(=O)N(C)c1cc(Nc2ncc(Cl)c(NCCCNC(=O)c3ccc(C(C)=O)cc3)n2)ccc1F"
  label-class: "Met"
- smiles-entry: "C=CC(=O)Nc1cc(Nc2ncc(Cl)c(NCCCNC(=O)c3ccc(C#N)cc3)n2)ccc1F"
  label-class: "Met"
- smiles-entry: "C=CC(=O)N(C)c1cc(Nc2ncc(Cl)c(NCCCNC(=O)c3ccc(C#N)c(F)c3)n2)ccc1F"
  label-class: "Not met"
- smiles-entry: "C=CC(=O)N(C)c1cc(Nc2ncc(Cl)c(NCCCNC(=O)c3ccc(C#N)nc3)n2)ccc1F"
  label-class: "Not met"
- smiles-entry: "C=CC(=O)N(C)c1cc(Nc2ncc(Cl)c(NCCCNC(=O)c3ccc(C#N)cc3F)n2)ccc1F"
  label-class: "Not met"
- smiles-entry: "C=CC(=O)N(C)c1cc(Nc2ncc(Cl)c(NCCCNC(=O)c3ccc(C#N)cc3)n2)ccc1F"
  label-class: "Met"
- smiles-entry: "C=CC(=O)N(C)c1cc(Nc2ncc(Cl)c(NCCCNC(=O)c3ccc(C(F)F)cc3)n2)ccc1F"
  label-class: "Met"
